B1: ZMYND11 (parent)
chain: YCSIKCQQEHWHAEHKRTCRRKR

variants of: B1; experiment: protein stability index of a GFP-peptide fusion (GPS, HEK-293T) (PSI 1-6); higher = more stable; conditions: c terminus: native;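 note: lentivirally expressed fusions sorted by FACS into six bins by GFP to DsRed ratio, PSI derived from sequencing read proportions per bin multiplied by bin number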
Would you please tag the item satisfied when its protein stability index is 2 or above, and not satisfied when it is below?

Here's what some known entries look like.
QUERY: Could you tell me if the measured protein stability index of YCSIKCQQEHWHAEHKRTYRRKR reaches 2 or more?
RESULT: satisfied

QUERY: Could you tell me if the measured protein stability index of YCSIKCQQEHWHAEHKRTCIRKR reaches 2 or more?
RESULT: not satisfied

QUERY: Could you tell me if the measured protein stability index of YCSIDCQQEHWHAEHKRTCRRKR reaches 2 or more?
RESULT: satisfied

QUERY: Could you tell me if the measured protein stability index of YCSIKCQSEHWHAEHKRTCRRKR reaches 2 or more?
RESULT: satisfied

More entries:
QUERY: Could you tell me if the measured protein stability index of YCSIKCQQPHWHAEHKRTCRRKR reaches 2 or more?
RESULT: satisfied

QUERY: Could you tell me if the measured protein stability index of YCRIKCQQEHWHAEHKRTCRRKR reaches 2 or more?
RESULT: satisfied

Sourced from the supplement of paper PMC10567573
